- ASSAYED_TARGET: MxA^MO2 (Homo sapiens, UniProt P20591, C322K/C336Q/C42S/C52S/M527D/R352C/R500C)
- Construct: monomeric full-length-type MxA (M527D) with solvent-exposed cysteines replaced; N-terminal His6-PreScission tag cut, E. coli Rosetta (DE3); SEC peak ~70 kDa
- Sequence (P20591 1-662 C42S/C52S/C322K/C336Q/R352C/R500C/M527D): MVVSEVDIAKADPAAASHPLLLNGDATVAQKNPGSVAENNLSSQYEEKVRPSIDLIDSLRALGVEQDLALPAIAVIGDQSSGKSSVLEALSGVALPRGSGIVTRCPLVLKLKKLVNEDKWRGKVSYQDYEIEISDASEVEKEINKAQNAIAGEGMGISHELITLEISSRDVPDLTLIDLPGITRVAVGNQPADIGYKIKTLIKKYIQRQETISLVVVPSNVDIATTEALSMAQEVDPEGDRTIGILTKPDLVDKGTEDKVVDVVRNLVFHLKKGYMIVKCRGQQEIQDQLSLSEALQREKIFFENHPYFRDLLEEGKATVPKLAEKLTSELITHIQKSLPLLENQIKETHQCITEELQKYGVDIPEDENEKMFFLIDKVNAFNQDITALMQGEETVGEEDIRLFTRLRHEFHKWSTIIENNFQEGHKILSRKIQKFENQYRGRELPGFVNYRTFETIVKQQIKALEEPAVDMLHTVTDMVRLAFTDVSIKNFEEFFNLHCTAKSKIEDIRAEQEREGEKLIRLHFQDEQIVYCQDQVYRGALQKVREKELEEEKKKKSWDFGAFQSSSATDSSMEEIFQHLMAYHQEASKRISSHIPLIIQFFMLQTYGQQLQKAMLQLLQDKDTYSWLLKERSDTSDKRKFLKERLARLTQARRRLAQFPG
- MEASUREMENT_PROTOCOL: isothermal titration calorimetry
- CONDITION_NOTES: read-out: equilibrium dissociation constant
Provide the recorded Kd for the entries that follow.
// return numeric value only (unit: µM, not printed)

Record request: Kd value, item Nc1nc2c(ncn2[C@@H]2O[C@H](COP(=O)(O)OP(=O)(O)O)[C@@H](O)[C@H]2O)c(=O)[nH]1 [GDP]
26.3

Record request: Kd value, item Nc1nc(O)c2ncn([C@@H]3O[C@H](COP(=O)(O)OP(=O)(O)C[P+]([O-])(O)O)[C@@H](O)[C@H]3O)c2n1 [GMPPCP]
14.7
